Entry source: patent US20090186915A1

# Test system: U-373MG
# protocol.description: MTT overall cell growth, U-373MG cells
# Assay type: cell-based
# assay.conditions: Homo sapiens, U373 MG; U-373MG; 72 hours incubation; range of molar concentrations; read-out: IC50
pIC50: −log10 of the molar value.
value.kind: pIC50

IN: Reported pIC50 for U-373MG, given CN(C)CCN1C(=O)c2cccc3cc(NC(N)=O)cc(c23)C1=O [UNBS5162] ?
OUT: 5.00 to 5.30

* * *

# protocol.description: UNBS5162 mouse pharmacokinetics
# Format: in vivo
# assay.conditions: B6D2F1, mouse, plasma, po; female mice; p.o. 80 mg/kg single
# Protocol: Mouse in-life phase. Female B6D2F1 mouse (Charles River, L'Arbresle, France) were administered a single i.v. bolus injection of 20 mg/kg or a single oral dose of 80-mg/kg UNBS5162 as a solution (formulated in 0.5% lactic acid). Dosing volume was 10 ml/kg body weight. […] The samples were subsequently analyzed for UNBS5162 by liquid chromatography-mass spectrometry. Plasma concentrations of UNBS5162 were determined using liquid chromatography-mass spectrometry. […]
value.kind: AUC(0-inf) (ng·h/mL)
Give the number; ng·h/mL is assumed, so skip it.

IN: Look up AUC(0-inf) for this compound: CN(C)CCN1C(=O)c2cccc3cc(NC(N)=O)cc(c23)C1=O
OUT: 886

* * *

# protocol.description: UNBS5162 mouse pharmacokinetics
# Type: in vivo
# assay.conditions: B6D2F1, mouse, plasma, iv; female mice; i.v. 20 mg/kg single
value.kind: half-life (h)
Give the number; h is assumed, so skip it.

IN: Look up half-life for this molecule: CN(C)CCN1C(=O)c2cccc3cc(NC(N)=O)cc(c23)C1=O
OUT: 3.8

* * *

# Test system: BFU-E
# protocol.description: HALO hematotoxicity assay, human BFU-E
# Type: cell-based
# assay.conditions: 168 h, 7 days culture, iATP
# Description: Investigation of the hematotoxic potential of UNBS5162 was undertaken by HemoGenix (Colorado Springs, Colo.). The effects of UNBS5162 on stem and progenitor cell populations from murine and human bone marrow were assessed using HALO (Hematopoietic/Hematotoxicity Assay through Luminescence Output) technology. […] The proliferative or growth potential of cell populations was determined from intracellular ATP (iATP) concentrations and a luciferin/luciferase bioluminescence signal detection system. […]
value.kind: pIC50
Here pIC50 is given on a logarithmic scale as minus log10 of the concentration in mol/L.

IN: Look up pIC50 for this compound: CN(C)CCN1C(=O)c2cccc3cc(NC(N)=O)cc(c23)C1=O
OUT: 5.44

* * *

# System: HCT-15
# protocol.description: MTT colorimetric assay, HCT-15 cells
# Format: cell-based
# assay.conditions: Homo sapiens, 72 h, 3 days of culturing, mean of six determinations, read-out: IC50 (μM) In Vitro Growth Inhibition
# Procedure: The overall growth of human cancer cell lines was determined by means of the calorimetric MTT (3-[4,5-dimethylthiazol-2-yl]-diphenyl tetrazolium bromide; Sigma) assay, as detailed previously.
value.kind: IC50
Respond with the figure and its unit, in that order.

>>> df
                               entry_smiles  reading
0  CN(C)CCN1C(=O)c2cccc3cc(NC(=O)NC(=O)C(Cl)(Cl)Cl)cc(c23)C1=O  29.3 µM

IN: Reported IC50 for HCT-15, given CN(C)CCN1C(=O)c2cccc3cc(NC(N)=O)cc(c23)C1=O ?
OUT: 28.8 µM
